The values you see were collected from patent US8129371B2.

Readings of pIC50 for the listed molecules
Molecular target: PI3K (Homo sapiens)
Construct: PI3 Kinase α IC50; other: PI3 Kinase α; other: PI3 Kinase α isoform, fluorescence polarization
Assay: Fluorescence polarization assay for PI3K
Assay type: biochemical
Settings: PI3 Kinase α; read-out: PI3 Kinase α IC50
In textbook form, pIC50 equals minus log to base ten of the concentration in mol/L.

Prompt: # pIC50 lookup, item CC(C)OC(=O)N1CCC(n2ncc3c(N4CC5CCC(C4)O5)nc(-c4ccc(NC(=O)NC5CC5)cc4)nc32)CC1 [Example 70]
Response: 6.03

Prompt: # pIC50 lookup, item CC(C)(C)n1ncc2c(N3CC4CCC(C3)O4)nc(-c3ccc(NC(=O)Nc4ccncc4)cc3)nc21 [Example 101]
Response: 6.75

###

Readings of IC50 for the listed molecules
Biological target: PI3K (Homo sapiens)
Construct: PI3 Kinase γ IC50; other: PI3 Kinase γ; other: PI3 Kinase γ isoform, fluorescence polarization
Assay: Fluorescence polarization assay for PI3K
Assay type: biochemical
Conditions: PI3 Kinase γ; read-out: PI3 Kinase γ IC50

The cases that follow already have their IC50 on record.
* CCNC(=O)Nc1ccc(-c2nc(N3CC4CCC(C3)O4)c3cnn(C)c3n2)cc1 | 7.91 µM
* CC(C)OC(=O)N1CCC(n2ncc3c(N4CC5CCC(C4)O5)nc(-c4ccc(NC(=O)NC5CC5)cc4)nc32)CC1 | 9.5 µM
* O=C(Nc1ccc(-c2nc(N3CC4CCC(C3)O4)c3cnn(C4CCN(CC(F)(F)F)CC4)c3n2)cc1)NC1CC1 | > 10 µM
* CCn1ncc2c(N3CC4CCC(C3)O4)nc(-c3ccc(NC(=O)NCCO)cc3)nc21 | 12 µM
* CN1CCN(c2ccc(NC(=O)Nc3ccc(-c4nc(N5CC6CCC(C5)O6)c5cnn(CCO)c5n4)cc3)cc2)CC1 | 1.14 µM
* CCn1ncc2c(N3CC4CCC(C3)O4)nc(-c3ccc(NC(=O)Nc4cccnc4)cc3)nc21 | 2.72 µM

Prompt: # IC50 lookup, item CNC(=O)Nc1ccc(-c2nc(N3CC4CCC(C3)O4)c3cnn(C4CCC(O)CC4)c3n2)cc1 (stereo not drawn) [Example 64]
Response: 5 µM

Prompt: # IC50 lookup, item `N#CCCn1ncc2c(N3CC4CCC(C3)O4)nc(-c3ccc(NC(=O)Nc4ccc(N5CCOCC5)nc4)cc3)nc21`
Response: > 10 µM

Prompt: # IC50 lookup, item `COC(=O)Nc1ccc(-c2nc(N3CC4CCC(C3)O4)c3cnn(C4CCN(C(=O)OC)CC4)c3n2)cc1`
Response: > 10 µM

Prompt: # IC50 lookup, item `O=C(Nc1ccc(-c2nc(N3CC4CCC(C3)O4)c3cnn(C4CCC5(CC4)OCCO5)c3n2)cc1)OCCF`
Response: > 10 µM

Prompt: # IC50 lookup, item `CC(C)OC(=O)N1CCC(n2ncc3c(N4CC5CCC(C4)O5)nc(-c4ccc(NC(=O)Nc5ccccc5)cc4)nc32)CC1`
Response: 4.91 µM

Prompt: # IC50 lookup, item `CCOC(=O)N1CCC(n2ncc3c(N4CC5CCC(C4)O5)nc(-c4ccc(NC(=O)NC5CCNCC5)cc4)nc32)CC1`
Response: 1.1 µM

###

Target: PI3K (Homo sapiens)
Construct: PI3 Kinase α IC50; other: PI3 Kinase α; other: PI3 Kinase α isoform, fluorescence polarization
Experiment: Fluorescence polarization assay for PI3K
Type: biochemical
Conditions: PI3 Kinase α; read-out: PI3 Kinase α IC50
readout.type: log10(IC50) (log10 of the value in µM)
Response schema: value (number) is log10 of IC50 in units of µM.

* CCn1ncc2c(N3CC4CCC(C3)O4)nc(-c3ccc4[nH]ccc4c3)nc21 [Example 76] | 0.83
* CCn1ncc2c(N3CC4CCC(C3)O4)nc(-c3ccc(NC(=O)Nc4ccc(N5CCNCC5)cc4)cc3)nc21 [Example 288] | -1.28

Prompt: # log10(IC50) lookup, item O=C(NCCO)Nc1ccc(-c2nc(N3CC4CCC(C3)O4)c3cnn(CCO)c3n2)cc1 [Example 196]
Response: -0.22
